- Tested target: PSMA-expressing C4-2 cells (Homo sapiens, UniProt Q04609)
- Construct: PSMA-expressing C4-2 cells (ATCC, Cat. No. CRL-3314) were cultured in RPMI-1640; host or cells: C4-2 cells
- Sequence (Q04609 whole entry): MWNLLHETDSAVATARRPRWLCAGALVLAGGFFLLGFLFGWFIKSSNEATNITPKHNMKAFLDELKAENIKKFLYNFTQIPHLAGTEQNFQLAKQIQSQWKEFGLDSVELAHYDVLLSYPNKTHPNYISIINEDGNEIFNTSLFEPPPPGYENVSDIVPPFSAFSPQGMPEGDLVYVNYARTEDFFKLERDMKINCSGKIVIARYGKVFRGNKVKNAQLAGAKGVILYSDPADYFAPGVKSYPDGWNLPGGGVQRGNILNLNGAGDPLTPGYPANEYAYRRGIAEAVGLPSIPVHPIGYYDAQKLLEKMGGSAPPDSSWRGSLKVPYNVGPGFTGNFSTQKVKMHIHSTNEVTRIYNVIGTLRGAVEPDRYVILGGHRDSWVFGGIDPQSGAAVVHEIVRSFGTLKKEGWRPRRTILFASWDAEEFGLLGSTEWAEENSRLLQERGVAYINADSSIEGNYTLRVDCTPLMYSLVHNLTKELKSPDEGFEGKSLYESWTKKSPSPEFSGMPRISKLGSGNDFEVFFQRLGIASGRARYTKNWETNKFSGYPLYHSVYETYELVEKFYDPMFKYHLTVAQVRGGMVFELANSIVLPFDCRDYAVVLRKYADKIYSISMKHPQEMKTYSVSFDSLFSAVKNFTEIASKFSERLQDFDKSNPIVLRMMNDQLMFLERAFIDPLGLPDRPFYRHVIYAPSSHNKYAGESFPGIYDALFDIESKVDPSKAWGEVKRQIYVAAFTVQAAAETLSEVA
- Method summary: FACS binding assay (competition with 50 nM PSM-0183)
- Setup conditions: FACS binding, PSMA-expressing C4-2 cells; pIC50 category; read-out: pIC50 [C4-2] CAT (converted)
Numbered stars: 1 amine (or outer) side, 2 acyl side, 3 side chain; on linkers, the order of the positions; unused ones are H or OH. Bridge positions count the residues as written; N and C are the ends. Square brackets hold non-standard residues; d marks the D form. Peptide text beside a SMILES is read from it. * marks the point of attachment. DOTA = O=C(O)CN1CCN(CC(=O)O)CCN(CC(=O)*)CCN(CC(=O)O)CC1; Ala(quinolin-3-yl) = N[C@@H](Cc1cnc2ccccc2c1)C(=O)O; Phe(4-Cl) = N[C@@H](Cc1ccc(Cl)cc1)C(=O)O; Propanoyl(3-SO2NH2) = NS(=O)(=O)CCC(=O)*; X1 = O=C(CC1CCN([*:1])CC1)[*:2]; Cit = NC(=O)NCCC[C@H](N)C(=O)O; Tle = CC(C)(C)[C@H](N)C(=O)O; NHCH2CH2NMe2 = CN(C)CCN*; Aib = CC(C)(N)C(=O)O
Observable: IC50

The reported value for C[C@@H](O)[C@H](NC(=O)CC1CCN(C(=O)CN2CCN(CC(=O)O)CCN(CC(=O)O)CCN(CC(=O)O)CC2)CC1)C(=O)NC(C)(C)C(=O)N[C@@H](Cc1ccc(Cl)cc1)C(=O)N[C@H]1CSSC[C@@H](C(=O)N[C@H](C(=O)NCCN(C)C)C(C)(C)C)NC(=O)[C@H](CC(N)=O)NC(=O)C(C)(C)NC(=O)[C@H](CCCNC(=N)N)NC(=O)[C@H](CCCCN)NC1=O [PSM-0306] ({DOTA}-[X1]T[Aib][Phe(4-Cl)]CKR[Aib]NC[Tle]-NHCH2CH2NMe2; disulfide 5-10) in terms of IC50 is < 0.2 µM

The reported value for CC(=O)N[C@H](C(=O)NC(C)(C)C(=O)N[C@@H](Cc1ccccc1)C(=O)N[C@H]1CSSC[C@@H](C(=O)N[C@H](C(=O)N[C@H](C(=O)N[C@@H](CC(=O)O)C(N)=O)[C@@H](C)O)C(C)(C)C)NC(=O)[C@H](CC(N)=O)NC(=O)[C@H](C)NC(=O)[C@H](CCCNC(N)=O)NC(=O)[C@H](CCCCN)NC1=O)[C@@H](C)O [PSM-0307] (Ac-T[Aib]FCK[Cit]ANC[Tle]TD-NH2; disulfide 4-9) in terms of IC50 is < 0.2 µM

The reported value for C[C@@H](O)[C@H](NC(=O)[C@@H](NC(=O)[C@@H]1CSSC[C@H](NC(=O)[C@H](Cc2ccc(Cl)cc2)NC(=O)C(C)(C)NC(=O)CCS(N)(=O)=O)C(=O)N[C@@H](CCCCN)C(=O)N[C@@H](CCCNC(=N)N)C(=O)NC(C)(C)C(=O)N[C@@H](CC(N)=O)C(=O)N1)C(C)(C)C)C(=O)N[C@H](CCCCNC(=O)CN1CCN(CC(=O)O)CCN(CC(=O)O)CCN(CC(=O)O)CC1)C(N)=O [PSM-0328] ({Propanoyl(3-SO2NH2)}-[Aib][Phe(4-Cl)]CKR[Aib]NC[Tle]T[dK](DOTA)-NH2; disulfide 3-8) in terms of IC50 is < 0.2 µM

The reported value for C[C@@H](O)[C@H](NC(=O)[C@@H](NC(=O)[C@@H]1CSSC[C@H](NC(=O)[C@H](Cc2cnc3ccccc3c2)NC(=O)C(C)(C)NC(=O)[C@@H](NC(=O)CC2CCN(C(=O)CN3CCN(CC(=O)O)CCN(CC(=O)O)CCN(CC(=O)O)CC3)CC2)[C@@H](C)O)C(=O)N[C@@H](CCCCN)C(=O)N[C@@H](CCCNC(N)=O)C(=O)NC(C)(C)C(=O)N[C@@H](CC(N)=O)C(=O)N1)C(C)(C)C)C(N)=O [PSM-0333] ({DOTA}-[X1]T[Aib][Ala(quinolin-3-yl)]CK[Cit][Aib]NC[Tle]T-NH2; disulfide 5-10) in terms of IC50 is > 3.16 µM

Consider now this further compound.
The reported value for C[C@@H](O)[C@H](NC(=O)[C@@H](NC(=O)[C@@H]1CSSC[C@H](NC(=O)[C@H](Cc2ccc(Cl)cc2)NC(=O)[C@H](CCC(=O)O)NC(=O)[C@@H](NC(=O)CC2CCN(C(=O)CN3CCN(CC(=O)O)CCN(CC(=O)O)CCN(CC(=O)O)CC3)CC2)[C@@H](C)O)C(=O)N[C@@H](CCCCN)C(=O)N[C@@H](CCCNC(=N)N)C(=O)NC(C)(C)C(=O)N[C@@H](CC(N)=O)C(=O)N1)C(C)(C)C)C(N)=O [PSM-0276] ({DOTA}-[X1]TE[Phe(4-Cl)]CKR[Aib]NC[Tle]T-NH2; disulfide 5-10) in terms of IC50 is > 3.16 µM
